# target_system: ARHGEF12, Q9NZN5-2
# Sequence (Q9NZN5 other isoform, or with tags, fused parts or gaps): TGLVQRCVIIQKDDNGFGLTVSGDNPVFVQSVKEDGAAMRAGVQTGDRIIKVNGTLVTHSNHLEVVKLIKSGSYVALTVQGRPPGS
# assay_explanation: holdup assay
# Set-up: key: below the threshold = too weak to quantify, mostly under pKd 3.1 to 4
# reported_conditions: plain residues with an end cap or a label only (N-terminal biotin on a linker: ado-ado)
Would you kindly list pKd for each of these binders?
Kindly provide the number alone.

Please give the documented pKd of STKRKLASAV [NCF1, P14598]
3.79

Please give the documented pKd of SRSVVESDEL [MYPN, Q86TC9]
3.58

Please give the documented pKd of GIKKITSTAL [RPS6KA3, P51812]
5.58

Please give the documented pKd of VKRNSKETVV [MARCHF3, Q86UD3]
4.13

Please give the documented pKd of TISFTQTSQF [SLC1A1, P43005]
3.79

Please give the documented pKd of DTKNYKQTSV [CRIPT, Q9P021]
4.36

Please give the documented pKd of DDASLPVSDV [PLEKHA1, Q9HB21]
4.36

Please give the documented pKd of PSVGSKKTVL [REELD1, A0A1B0GV85]
5.05

Please give the documented pKd of RDPPAEWTRV [PTPN18, Q99952]
3.88

Please give the documented pKd of DGVNEKVSCV [HTR2A, P28223]
4.36

Please give the documented pKd of LKDDELKTKL [SLCO1A2, P46721]
4.62

Please give the documented pKd of PTPDLPQTRV [KLHDC7A, Q5VTJ3]
4.13

Please give the documented pKd of MQHQRTHTRV [ZSCAN30, Q86W11]
3.96

Please give the documented pKd of TNSRHGETTV [FZD2, Q14332]
3.57

Please give the documented pKd of TGLWKHETTV [ADGRA3, Q8IWK6]
4.06

Please give the documented pKd of ARGPPRESEV [FAM110D, Q8TAY7]
3.82

Please give the documented pKd of APIAGFSSFV [SDK2, Q58EX2]
4.14

Please give the documented pKd of KSRVAFFEEL [NF2, P35240;P35240-1]
3.91

Please give the documented pKd of REEPDHSTEV [CCRL2, O00421]
4.37

Please give the documented pKd of QSGLYESEEL [MYOT, Q9UBF9]
3.63

Please give the documented pKd of ELSATVTTDC [TRIP6, Q15654]
4.44
